Experiment summary: vapor pressure of fragrance components
Settings: at 25° C.
We label by threshold. Values of Vapor Pressure strictly beneath 0.09 mm/Hg are y. Values of 0.09 mm/Hg and up are n.

# Compound, Group label
measured = [
    ("CC/C=C\\CCOC(C)=O [cis-3-hexenyl acetate]", "n"),
    ("C=CC(C)(O)CCC=C(C)C (stereo not drawn) [linalool]", "y"),
    ("OCCc1ccccc1 [β-phenyl ethyl alcohol]", "y"),
    ("CC1=CC(C)C(C=O)CC1 (stereo not drawn)", "n"),
    ("CC/C=C\\CCOC(=O)c1ccccc1O [cis-3-hexenyl salicylate]", "y"),
    ("CC1(C)C2CCC1(C)C(O)C2 (stereo not drawn) [Example 1-borneol, 1-borneol]", "y"),
    ("CCCCCCCCCC(C)C=O (stereo not drawn) [methyl nonyl acetaldehyde]", "y"),
    ("CC(=O)/C=C/C1=C(C)CCCC1(C)C [β-ionone]", "y"),
    ("CC(=O)c1cc2c(cc1C)C(C)(C)C(C)CC2(C)C (stereo not drawn) [TONALID ®]", "y"),
    ("C=CCOC(=O)COCCC(C)C [allyl amyl glycolate]", "y"),
    ("CC1=CCC(C(C)(C)O)CC1 (stereo not drawn) [α-terpineol]", "y"),
    ("C=CC(C)(CCC=C(C)C)OC(C)=O (stereo not drawn) [linalyl acetate]", "y"),
    ("CC(=O)OC(C)c1ccccc1 (stereo not drawn) [styralyl acetate]", "n"),
    ("CC(=O)OC1CCC(C(C)(C)C)CC1 (stereo not drawn) [VERTENEX ® HC]", "y"),
    ("CCCCCCC(C=O)=Cc1ccccc1 [hexyl cinnamic aldehyde]", "y"),
    ("CC(C=O)Cc1ccc(C(C)C)cc1 (stereo not drawn) [cyclamal]", "y"),
    ("CC(C)=CCCC(C)CCO (stereo not drawn) [citronellol]", "y"),
    ("CC12CCC(CC1=O)C2(C)C (stereo not drawn) [camphor]", "n"),
    ("CC(=O)C1(C)CC2=C(CCCC2(C)C)CC1C (stereo not drawn) [ISO E SUPER ®]", "y"),
    ("CC(C=O)Cc1ccc(C(C)(C)C)cc1 (stereo not drawn) [LILIAL ®]", "y"),
    ("CC(=O)OCc1ccccc1 [benzyl acetate]", "n"),
]

###

Experiment summary: vapor pressure of fragrance components
Settings: at 25° C.
Parameter: Vapor Pressure

# Molecule, Parameter, Observed measurement
records = [
    ("C=CC(C)CCCC(C)(C)O (stereo not drawn) [dihydromyrcenol]", "Vapor Pressure", "0.09 mm/Hg"),
    ("C=CCc1ccc(OC)cc1", "Vapor Pressure", "0.09 mm/Hg"),
    ("CC(=O)O[C@@H]1C[C@H]2CC[C@]1(C)C2(C)C (racemic) [isobornyl acetate]", "Vapor Pressure", "0.09 mm/Hg"),
]

From: patent US6703011B2
